Experiment: CellTiter-Glo luminescent readout of SW480 viability loss, NPC library primary (AID 1117343)
Conditions: CellTiter-Glo luminescence; at 20 µM (top of the series)
Readout Label: viability decrease (inhibition) (%)

# Compound, Experimental Value
rows = [
    ("O=C(NCN1CCOCC1)c1cnccn1", 40.1),
    ("NCCc1ccc(O)c(O)c1", 79.9),
    ("CCN(CC)c1ccc(C(=C2C=CC(=[N+](CC)CC)C=C2)c2cc(S(=O)(=O)O)ccc2S(=O)(=O)[O-])cc1", 52.8),
    ("CN1CCN(N)CC1", -13.8),
    ("CCC(=O)O", -0.5),
    ("O=C(OCC1(COC(=O)c2cccnc2)CCCC(COC(=O)c2cccnc2)(COC(=O)c2cccnc2)C1O)c1cccnc1", -3.1),
    ("Cc1cnc(NS(=O)(=O)c2ccc(N)cc2)nc1", 7.7),
    ("COc1cc(C=C2CCC/C(=C\\c3ccc(O)c(OC)c3)C2=O)ccc1O", 103),
    ("NS(=O)(=O)c1cc(-c2nn[nH]n2)c(NCc2cccs2)cc1Cl", 2.3),
    ("CCCCC(=O)OCC(=O)[C@H]1[C@H](C)C[C@H]2[C@@H]3C[C@H](F)C4=CC(=O)C=C[C@]4(C)[C@@]3(F)[C@@H](O)C[C@@]21C", -15.9),
    ("C[C@H]1O[C@@H](O[C@H]2CC[C@@]3(C)[C@H](CC[C@@H]4[C@@H]3C[C@@H](O)[C@]3(C)[C@@H](C5=CC(=O)OC5)CC[C@]43O)C2)C[C@H](O)[C@@H]1O[C@H]1C[C@H](O)[C@H](O[C@H]2C[C@H](O)[C@H](O[C@@H]3O[C@H](CO)[C@@H](O)[C@H](O)[C@H]3O)[C@@H](C)O2)[C@@H](C)O1", 69.4),
    ("COC(=O)c1ccccc1C(=O)c1ccc(OCCN2CCCCC2)cc1", 15.8),
    ("CCCCCCCCCC(=O)O", 49.5),
    ("OCCN1CCN(CCCN2c3ccccc3Sc3ccc(Cl)cc32)CC1", 116),
    ("CCOc1c(N2CCOCC2)cnn(C)c1=O", 7.7),
    ("CN1CCN(CCC(=O)N2c3ccccc3Sc3ccc(C(F)(F)F)cc32)CC1", 117),
    ("Nc1nc(=O)n([C@@H]2O[C@H](CO)[C@@H](O)[C@@H]2F)cc1I", 32.2),
    ("CC[C@H](C)C(=O)O[C@H]1C[C@H](O)C=C2C=C[C@H](C)[C@H](CC[C@@H](O)C[C@@H](O)CC(=O)O)[C@H]21", 2.3),
    ("O=C(O)c1ccccc1S", 31.6),
    ("COc1ccc(S(=O)(=O)N2c3ccc(Cl)cc3[C@@](O)(c3ccccc3Cl)[C@H]2C(=O)N2CCC[C@@H]2C(N)=O)cc1OC", 0.4),
    ("O=C1CCCc2c(O)cccc21", 12.5),
    ("NCCC(=O)[N-][C@@H](Cc1cnc[nH]1)C(=O)O.[Zn]", -14.8),
    ("CN(C)CCN(Cc1ccccc1)c1ccccn1", -2.1),
    ("COC1=C(OC)C(=O)C(CC=C(C)CCC=C(C)CCC=C(C)CCC=C(C)CCC=C(C)CCC=C(C)CCC=C(C)CCC=C(C)CCC=C(C)CCC=C(C)C)=C(C)C1=O", -7.3),
    ("CCc1cc(S(=O)(=O)O)c2cc(C(C)C)cccc1-2", -19),
    ("CC1=C(/C=C/C(C)=C/C=C/C(C)=C/C(=O)O)C(C)(C)CCC1", 142),
    ("COc1cc(OC)nc(O[C@H](C(=O)O)C(OC)(c2ccccc2)c2ccccc2)n1", 6.1),
    ("CCCSc1ccc2nc(NC(=O)OC)[nH]c2c1", 86.6),
    ("C#CC(C)(CC)OC(=O)c1ccccc1C(=O)O (configuration not stated)", 11.9),
    ("COCCc1ccc(OCC2CO2)cc1 (configuration not stated)", 14.3),
    ("CN(C)CC/C=C1\\c2ccccc2COc2ccccc21", 54.8),
    ("CCCCCCCCCCC(CO)CCCCCCCC (configuration not stated)", 14.5),
]
